Tested on: BT-549 breast
Assay: NCI tumour cell line growth inhibition, 48 h
Kindly state TGI for each of the entries shown.

Examples from the recorded data:
Req: Consider the compound CN(C)CCN=C1Nc2ccccc2C(=O)N2CSCC12 (stereo not drawn) tested on BT-549 breast; state its TGI.
Resp: > 100 µM

Req: Consider the compound COc1cc2c(c(OC)c1OC)C(=O)c1c-2n(CCCN=[N+]=[N-])c(=O)c2cc([N+](=O)[O-])ccc12 tested on BT-549 breast; state its TGI.
Resp: > 100 µM

Would you kindly look at the next entry?
Req: Consider the compound Cc1[nH]c(=O)nc(N/N=C/c2ccc(Cl)cc2)c1C(=O)Nc1ccc(Cl)cc1 tested on BT-549 breast; state its TGI.
Resp: > 100 µM
